target-desc: glucocerebrosidase (Gcase) (Homo sapiens, UniProt P04062)
Sequence (P04062 40-536): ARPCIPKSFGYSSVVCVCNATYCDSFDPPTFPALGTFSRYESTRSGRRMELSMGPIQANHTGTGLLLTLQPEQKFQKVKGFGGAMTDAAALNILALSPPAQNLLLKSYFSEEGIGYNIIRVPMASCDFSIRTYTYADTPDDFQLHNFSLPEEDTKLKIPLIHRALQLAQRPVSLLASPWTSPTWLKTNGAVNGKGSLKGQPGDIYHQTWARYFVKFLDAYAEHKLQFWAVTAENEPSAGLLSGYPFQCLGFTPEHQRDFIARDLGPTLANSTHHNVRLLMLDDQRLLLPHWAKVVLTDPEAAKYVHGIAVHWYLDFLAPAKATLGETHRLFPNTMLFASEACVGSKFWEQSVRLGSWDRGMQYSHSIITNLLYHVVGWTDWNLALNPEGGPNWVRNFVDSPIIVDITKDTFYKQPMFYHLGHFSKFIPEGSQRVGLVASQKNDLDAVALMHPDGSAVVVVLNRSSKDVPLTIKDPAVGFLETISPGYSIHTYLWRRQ
assay-remarks: Glucocerebrosidase (Gcase) activation assay, 4-methylumbelliferyl-beta-D-glucopyranoside substrate, fluorescence
Assay type: biochemical
settings: 0.25 h, pH 4.7, test compound at 1.0 μM, 10 nM GCase, 100 nM saposin C, read-out: Percent Gcase Activation 1 μM Test Compound
measure: activation at 1 µM

The reported value for `Cc1cc(N2CCC(F)(F)CC2)nc2c(C(=O)NC(C)(C)C3CC3)ccn12` in terms of activation at 1 µM is > 60%

The reported value for `Cc1cc(C)n2ccc(C(=O)N[C@@H](C)c3nc4ccccc4n3C)c2n1` in terms of activation at 1 µM is < 30%

The reported value for `Cc1cc(C)n2ccc(C(=O)N[C@H](C)c3ccc(F)cc3)c2n1` in terms of activation at 1 µM is > 60%

The reported value for `Cc1cc(NC2CCOCC2)nc2c(C(=O)NC(C)(C)C3CC3)ccn12` in terms of activation at 1 µM is > 60%

The reported value for `Cc1cc(C(F)F)n2ccc(C(=O)N[C@H]3CC[C@H](OCC(C)(C)C)CC3)c2n1` in terms of activation at 1 µM is > 60%

====

assay-remarks: Compound solubility in water
Type: physicochemical
measure: log10 of solubility (log10 of the value in µg/mL)
# values: log10(solubility), units µg/mL

The reported value for `Cc1cc(F)nc2c(C(=O)NC(C)(C)C3CC3)ccn12` in terms of log10 of solubility is 0.80

The reported value for `COCc1cc(C)n2ccc(C(=O)NC(C)(C)C3CC3)c2n1` in terms of log10 of solubility is 1.34

The reported value for `COc1ccc([C@@H](C)NC(=O)c2ccn3c(C)cc(C)nc23)cc1` in terms of log10 of solubility is 0.72

The reported value for `Cc1cc(-c2ccc(F)cc2)nc2c(C(=O)N[C@@H](C)C3CC3)ccn12` in terms of log10 of solubility is -1.00

The reported value for `Cc1cc(-c2ccc(F)cc2)n2ccc(C(=O)N[C@@H](C)C3CC3)c2n1` in terms of log10 of solubility is -0.15

The reported value for CCC(NC(=O)c1ccn2c(C)cc(C)nc12)c1nc(C2CC2)no1 (centres unmarked) in terms of log10 of solubility is 1.27

The reported value for `Cc1ccnc2c(C(=O)NC3(c4ccccc4OC4CC4)CC3)ccn12` in terms of log10 of solubility is 0.80

The reported value for `COCc1cc(C(F)F)nc2c(C(=O)NC(C)(C)C3CC3)ccn12` in terms of log10 of solubility is 0.58

The reported value for `Cc1cc(-c2cccnc2)nc2c(C(=O)N[C@H]3CC[C@H](OC(C)(C)C)CC3)ccn12` in terms of log10 of solubility is 1.06

The reported value for `CCCO[C@H]1CC[C@H](NC(=O)c2ccn3c(C(F)F)cc(C)nc23)CC1` in terms of log10 of solubility is 0.95

The reported value for `CNc1cc(C)n2ccc(C(=O)NC(C)(C)C3CC3)c2n1` in terms of log10 of solubility is 1.04

The reported value for `Cc1cc(C)n2ccc(C(=O)NC(C)(C)C3CC3)c2n1` in terms of log10 of solubility is 1.27

The reported value for `CCCO[C@H]1CC[C@H](NC(=O)c2ccn3c(C)cc(C(F)F)nc23)CC1` in terms of log10 of solubility is 1.27

The reported value for Cc1cc(C)n2ccc(C(=O)NC(CC(C)C)c3ccccc3)c2n1 (centres unmarked) in terms of log10 of solubility is 0.00

The reported value for `Cc1cc(NC2CCOCC2)nc2c(C(=O)NC(C)(C)C3CC3)ccn12` in terms of log10 of solubility is 1.00

The reported value for `C[C@H](NC(=O)c1ccn2c(C(F)F)cc(C(F)F)nc12)C1CC1` in terms of log10 of solubility is 1.53

The reported value for `Cc1cc(C)n2cc(C)c(C(=O)N[C@@H](C)C3CC3)c2n1` in terms of log10 of solubility is 0.93

The reported value for Cc1cc(C)n2ccc(C(=O)NC(C)c3ccc4ccccc4c3)c2n1 (centres unmarked) in terms of log10 of solubility is -0.70

The reported value for `C#Cc1ccc(NC(=O)c2ccn3c(C)cc(-c4cccnc4)nc23)cc1` in terms of log10 of solubility is 0.08

The reported value for `Cc1nc2c(C(=O)N[C@@H](C)C3CC3)ccn2c(C)c1-c1ccc(F)cc1` in terms of log10 of solubility is 0.23
